- SYSTEM: HLA-A*02:01 (Homo sapiens, UniProt P04439, D140Y/D185E/D98H/E176V/E277Q/G131W/G231S/I119V/I121R/I166T/I218V/L300P/L318F/N151K/N90K/P208A/P217A/Q86G/Q94H/R138H/R169H/T345S)
- Construct: Plasmid DNA encoding the BirA tagged luminal domain of MHC-I heavy chains HLA-A*02:01; made in house; Drosophila S2 cells (TAPBPR); gTAX synthetic (Genscript)
- Assay type: binding
- CONDITIONS: p/HLA-A*02:01 prepared by TAPBPR-mediated peptide exchange, 10-fold molar excess of peptide, overnight 4° C.; DSF first derivative; ± SD of 3 replicates
MEASUREMENT KIND: Tm
A bare number is not enough; add the unit after it.

LLLDRLNQL [Peptide 7]; 54.3 ± 0.6 °C
LQLPQGTTL [Peptide 28]; 44.4 ± 1.1 °C
IITTDNTFV [Peptide 24]; 42.4 ± 0.6 °C
ILLLDQALV [Peptide 10]; 52.3 ± 0.0 °C
SIIAYTMSL [Peptide 14]; 53.3 ± 0.6 °C

Provide Tm for all items below, preserving their order.
1. TTLPKGFYA [Peptide 32]
2. LITGRLQSL [Peptide 29]
3. WLMWLIINL [Peptide 9]

Outgoing:
1. 46.3 ± 0.6 °C
2. 44.4 ± 0.6 °C
3. 42.4 ± 4.0 °C
